The reported numbers originate from patent US20250296953A1.

Kindly supply the reported SK-MEL-28 (% viability) values for the records listed here.
System: SK-MEL-28
Assay: Melanoma cytotoxicity assay (resazurin)
Format: cell-based
Details: human, 24 h
Experimental: Cytotoxicity Assay: Melanoma cells (˜4000 cells in each well) were incubated in a 96 well plates at 37° C. in 5% CO2 for 24 hours. Compounds were added in triplicates and the plate was further incubated for 24 hours. […] Next day resazurin was added and the plate was further incubated for 6 hours followed by reading the plate at 544 nm (excitation) and 590 nm (emission) using BMG Labtech Fluostar Optima plate reader. IC50 values were determined by using Graphpad Prism. […]

Input line: Consider the molecule C[C@]12CC[C@H]3[C@@H](CC=C4c5sc(Nc6ccc(F)cc6)nc5CC[C@@]43C)[C@@H]1CC[C@@H]2O and give its recorded SK-MEL-28 (% viability).
Output line: 2.35%

Input line: Supply reported SK-MEL-28 (% viability) belonging to this molecule: C[C@]12CC[C@H]3[C@@H](CC=C4c5sc(Nc6ccc(F)cc6F)nc5CC[C@@]43C)[C@@H]1CC[C@@H]2O
Output line: 3.92%

Input line: Find the measured SK-MEL-28 (% viability) of CNc1nc2c(s1)C1=CC[C@H]3[C@@H]4CC[C@H](O)[C@@]4(C)CC[C@@H]3[C@@]1(C)CC2 and report it.
Output line: 1.9%

Input line: Give the reported SK-MEL-28 (% viability) for this molecule. C[C@]12CC[C@H]3[C@@H](CC=C4c5sc(Nc6cccc(C(=O)O)c6)nc5CC[C@@]43C)[C@@H]1CC[C@@H]2O
Output line: 66.69%

Input line: Kindly indicate its recorded SK-MEL-28 (% viability). Item: C[C@]12CC[C@H]3[C@@H](CC=C4c5sc(-c6ccc(Br)cc6)nc5CC[C@@]43C)[C@@H]1CC[C@@H]2O
Output line: 58%

Input line: Specify reported SK-MEL-28 (% viability) for the molecule shown: C[C@]12CC[C@H]3[C@@H](CC=C4c5sc(-c6ccc(O)c(O)c6)nc5CC[C@@]43C)[C@@H]1CC[C@@H]2O
Output line: 11%

Input line: For the molecule Cc1ccc(Nc2nc3c(s2)C2=CC[C@H]4[C@@H]5CC[C@H](O)[C@@]5(C)CC[C@@H]4[C@@]2(C)CC3)cc1 , give its reported SK-MEL-28 (% viability).
Output line: 0.90%

Input line: Read the entry C[C@]12CC[C@H]3[C@@H](CC=C4c5sc(-c6ccccn6)nc5CC[C@@]43C)[C@@H]1CC[C@@H]2O and write its reported SK-MEL-28 (% viability).
Output line: 86%

Input line: Fill in SK-MEL-28 (% viability) for record C[C@]12CC[C@H]3[C@@H](CC=C4c5sc(Nc6ccc(C(=O)O)cc6)nc5CC[C@@]43C)[C@@H]1CC[C@@H]2O
Output line: 69.56%

Input line: Provide SK-MEL-28 (% viability) value for the following molecule: Cc1nc2c(s1)C1=CC[C@H]3[C@@H]4CC[C@H](O)[C@@]4(C)CC[C@@H]3[C@@]1(C)CC2
Output line: 58%

Input line: Return SK-MEL-28 (% viability) (reported value) for this molecule: CC(=O)Nc1nc2c(s1)C1=CC[C@H]3[C@@H]4CC[C@H](O)[C@@]4(C)CC[C@@H]3[C@@]1(C)CC2
Output line: 62.56%

Input line: Provide one value: measured SK-MEL-28 (% viability) of C=CCNc1nc2c(s1)C1=CC[C@H]3[C@@H]4CC[C@H](O)[C@@]4(C)CC[C@@H]3[C@@]1(C)CC2
Output line: 2.04%

Input line: State its SK-MEL-28 (% viability): C[C@]12CC[C@H]3[C@@H](CC=C4c5sc(Nc6ccccc6[N+](=O)[O-])nc5CC[C@@]43C)[C@@H]1CC[C@@H]2O
Output line: 8.47%

Input line: Please report the measured SK-MEL-28 (% viability) for C[C@]12CC[C@H]3[C@@H](CC=C4c5sc(-c6ccccc6O)nc5CC[C@@]43C)[C@@H]1CC[C@@H]2O
Output line: 32%

Input line: Find the measured SK-MEL-28 (% viability) of CCCCNc1nc2c(s1)C1=CC[C@H]3[C@@H]4CC[C@H](O)[C@@]4(C)CC[C@@H]3[C@@]1(C)CC2 and report it.
Output line: 1.69%

Input line: Give me measured SK-MEL-28 (% viability), please, for this molecule: C[C@]12CC[C@H]3[C@@H](CC=C4c5sc(Nc6ccccc6)nc5CC[C@@]43C)[C@@H]1CC[C@@H]2O
Output line: 13.79%

Input line: Please give measured SK-MEL-28 (% viability) of the following entry: C[C@]12CC[C@H]3[C@@H](CC=C4c5sc(NCCc6ccccc6)nc5CC[C@@]43C)[C@@H]1CC[C@@H]2O
Output line: 4.28%

Input line: Let me know recorded SK-MEL-28 (% viability) for CCNc1nc2c(s1)C1=CC[C@H]3[C@@H]4CC[C@H](O)[C@@]4(C)CC[C@@H]3[C@@]1(C)CC2 , thanks.
Output line: 2.00%

Input line: Give SK-MEL-28 (% viability) for C[C@]12CC[C@H]3[C@@H](CC=C4c5sc(Nc6ccccn6)nc5CC[C@@]43C)[C@@H]1CC[C@@H]2O
Output line: 1.50%
